Target: Cynomolgus T cell receptor on cynomolgus primary T cells (cynomolgus monkey)
Assay: cell-based or functional assay
Examples of binders with documented % lysis, MOLM-13, Cynomolgus T cell mediated killing follow.
recordedMetric: % lysis, MOLM-13, Cynomolgus T cell mediated killing (%)

binder="T017000131 (bispecific antibody, also called A0110056A10(E1D)-35GS-T0170056G05-A) DVQLVESGGGLVQAGGSLRLSCAASGITSKINDMGWYRQTPGNYREWVASITATGTTNYRDSVKGRFTISRDNAKSTVYLQMNSLKPEDTTVYYCNTFPPISNFWGQGTLVTVSSGGGGSGGGGSGGGGSGGGGSGGGGSGGGGSGGGGSEVQLVESGGGLVQPGGSLRLSCVASGDVHKINFLGWYRQAPGKEREKVAHISIGDQTDYADSAKGRFTISRDESKNMVYLQMNSLKPEDTAVYFCRAFSRIYPYDYWGQGTLVTVSSA" quantitativeresult=14
binder="T017000633 (bispecific antibody) DVQLVESGGGVVQPGGSLRLSCVASGYVHKINFYGWYRQAPGKEREKVAHISIGDQTDYADSAKGRFTISRDESKNTVYLQMNSLRPEDTALYYCRALSRIWPYDYWGQGTLVTVSSGGGGSGGGGSGGGGSGGGGSGGGGSGGGGSGGGGSEVQLVESGGGLVQAGGSLRLSCAASGITSKINDMGWYRQTPGNYREWVASITATGTTNYRDSVKGRFTISRDNAKSTVYLQMNSLKPEDTTVYYCNTFPPISNFWGQGTLVTVSSA" quantitativeresult=44
binder="T017000128 (bispecific antibody) DVQLVESGGGLVQPGGSLRLSCVASGDVHKINFLGWYRQAPGKEREKVAHISIGDQTDYADSAKGRFTISRDESKNMVYLQMNSLKPEDTAVYFCRAFSRIYPYDYWGQGTLVTVSSGGGGSGGGGSGGGGSGGGGSGGGGSGGGGSGGGGSEVQLVESGGGLVQAGGSLRLSCAASGITSKINDMGWYRQTPGNYREWVASITATGTTNYRDSVKGRFTISRDNAKSTVYLQMNSLKPEDTTVYYCNTFPPISNFWGQGTLVTVSSA" quantitativeresult=37
